Origin of measurements: patent US11787833B2

# EC50 values compiled below
TESTED_SYSTEM: 293T-Dual hSTING-R232 cells (Homo sapiens, UniProt Q86WV6, H232R)
Construct: host or cells: 293T-Dual hSTING-R232 cells (HEK 293T)
Sequence (Q86WV6 whole entry H232R): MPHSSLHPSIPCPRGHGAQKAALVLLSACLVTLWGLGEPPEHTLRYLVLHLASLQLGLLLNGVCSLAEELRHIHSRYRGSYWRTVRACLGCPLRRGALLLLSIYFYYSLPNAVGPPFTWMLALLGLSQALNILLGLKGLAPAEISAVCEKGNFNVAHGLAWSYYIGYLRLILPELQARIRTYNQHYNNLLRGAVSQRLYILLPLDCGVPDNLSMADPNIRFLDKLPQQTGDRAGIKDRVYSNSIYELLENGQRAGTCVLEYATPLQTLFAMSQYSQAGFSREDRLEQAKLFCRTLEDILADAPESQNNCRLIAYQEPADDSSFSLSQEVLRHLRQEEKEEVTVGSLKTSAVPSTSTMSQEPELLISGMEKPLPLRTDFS
TEST_METHOD_NOTES: 293T R232 cell reporter assay (HEK 293T reporter assay)
Type: cell-based
STUDY_CONDITIONS: digitonin 10 μg/mL, 30 min exposure, 20 h incubation, alkaline phosphatase reporter, read-out: EC50 [μM] IRF reporter

Field: example entries. Status: answers known.
MOLECULE | TEST_READOUT | MEASURED_RESULT
Nc1ncnc2c1ncn2C1OC2COP(=O)(S)OC3C(O)C(n4cnc5c(N)ncnc54)C4CC43COP(=O)(S)OC1C2O (single isomer, unassigned) [Compound 1-14a] | EC50 | 0.25 to 100 µM
COC1C2COP(=O)(S)OC3C(O)C(n4cnc5c(N)ncnc54)C4CC43COP(=O)(S)OC1C(n1cnc3c(=O)[nH]c(N)nc31)O2 (single isomer, unassigned) [Compound 1-6a] | EC50 | 0.25 to 100 µM
COC1C2COP(=O)(S)OC3C(COP(=O)(S)OC1C(c1snc4c(=O)[nH]c(N)nc14)O2)OC(n1cnc2c(N)ncnc21)C3F (single isomer, unassigned) [Compound 1-48b] | EC50 | < 0.25 µM
Nc1nc2c(ncn2C2OC34COC2C3OP(=O)(O)OCC2OC(c3snc5c(N)ncnc35)CC2OP(=O)(O)OC4)c(=O)[nH]1 (stereo not shown) | EC50 | < 0.25 µM
CO[C@H]1[C@H]2OP(=O)(O)OC[C@@]34CO[C@@H]([C@H](n5cnc6c(N)ncnc65)O3)[C@@H]4OP(=O)(O)OC[C@H]1O[C@H]2c1snc2c(=O)[nH]c(N)nc12 | EC50 | < 0.25 µM
Nc1nc2c(ncn2C2SC3COP(=O)(S)OC4C(O)C(n5cnc6c(N)ncnc65)C5CC54COP(=O)(O)OC2C3O)c(=O)[nH]1 (single isomer, unassigned) [Compound 1-30a] | EC50 | 0.25 to 100 µM

// sample COC1C2COP(=O)(S)OC3C(COP(=O)(S)OC1C(c1snc4c(=O)[nH]c(N)nc14)O2)OC(n1cnc2c(N)ncnc21)C3F (stereo not shown) [Compound 1-48c] , its EC50 was < 0.25 µM

// sample COC1C2COP(=O)(S)OC3C(COP(=O)(O)OC1C(n1cnc4c(=O)[nH]c(N)nc41)O2)C1CC1(n1cnc2c(N)ncnc21)C3O (stereo not shown) [Compound 1-16a] , its EC50 was 0.25 to 100 µM

// sample COC1C2COP(=O)(S)OC3C(COP(=O)(S)OC1C(c1snc4c(=O)[nH]c(N)nc14)O2)OC(n1cnc2c(N)ncnc21)C3F (stereo not shown) [Compound 1-48d] , its EC50 was < 0.25 µM

---

TESTED_SYSTEM: 293T-Dual hSTING-R232 cells (Homo sapiens, UniProt Q86WV6, H232R)
Construct: host or cells: 293T-Dual hSTING-R232 cells (HEK 293T)
TEST_METHOD_NOTES: 293T R232 cell reporter assay (HEK 293T reporter assay)
Assay type: cell-based
STUDY_CONDITIONS: digitonin 10 μg/mL, 30 min exposure, 20 h incubation, luciferase reporter, read-out: EC50 [μM] IRN-β reporter
# EC50 values compiled below

Field: example entries. Status: answers known.
COMPOUND | EC50
Nc1nc2c(ncn2C2SC3COP(=O)(S)OC4C(O)C(n5cnc6c(N)ncnc65)C5CC54COP(=O)(O)OC2C3O)c(=O)[nH]1 (single isomer, unassigned) [Compound 1-30a] | 0.25 to 100 µM
CO[C@H]1[C@H]2OP(=O)(O)OC[C@H]3O[C@@H](n4cnc5c(N)nnnc54)[C@H](O)[C@@H]3OP(=O)(O)OC[C@H]1O[C@H]2n1cnc2c(=O)[nH]c(N)nc21 | > 100 µM
CO[C@H]1[C@H]2OP(=O)(O)OC[C@@]34CO[C@@H]([C@H](n5cnc6c(N)ncnc65)O3)[C@@H]4OP(=O)(O)OC[C@H]1O[C@H]2c1snc2c(=O)[nH]c(N)nc12 | 0.25 to 100 µM
Nc1ncnc2c1ncn2C1OC2COP(=O)(S)OC3C(O)C(n4cnc5c(N)ncnc54)C4CC43COP(=O)(S)OC1C2O (single isomer, unassigned) [Compound 1-14a] | > 100 µM
Nc1nc2c(ncn2[C@H]2[C@H](O)[C@@H]3OP(=O)(O)OC[C@H]4C[C@@H](n5cnc6c(N)ncnc65)[C@H](O)[C@@H]4OP(=O)(O)OC[C@@]34C[C@H]24)c(=O)[nH]1 | 0.25 to 100 µM
Nc1nc2c(ncn2C2OC34COC2C3OP(=O)(O)OCC23CC2C(n2cnc5c(N)ncnc52)C(O)C3OP(=O)(S)OC4)c(=O)[nH]1 (stereo not drawn) [Compound 1-21b] | < 0.25 µM
Nc1nc2c(ncn2C2OC34COP(=O)(O)OC5C6OCC5(COP(=O)(O)OC2C3C4)OC6n2cnc3c(N)ncnc32)c(=O)[nH]1 (stereo not drawn) | < 0.25 µM
CO[C@H]1[C@H]2OP(=O)(O)OC[C@@H]3[C@@H](OP(=O)(O)OC[C@H]1O[C@H]2n1cnc2c(=O)[nH]c(N)nc21)[C@@H](O)[C@]1(n2cnc4c(N)ncnc42)C[C@@H]31 | < 0.25 µM

// sample CO[C@H]1[C@H]2OP(=O)(O)OC[C@]34C[C@@H]3[C@@H](n3cnc5c(N)ncnc53)[C@H](O)[C@@H]4OP(=O)(O)OC[C@H]1O[C@H]2c1scc2c(=O)[nH]c(N)nc12 , its EC50 was > 100 µM

// sample COC1C2COP(=O)(S)OC3C(COP(=O)(S)OC1C(c1snc4c(=O)[nH]c(N)nc14)O2)OC(n1cnc2c(N)ncnc21)C3F (stereo not drawn) [Compound 1-48c] , its EC50 was 0.25 to 100 µM

---

TESTED_SYSTEM: 293T-Dual hSTING-R232 cells (Homo sapiens, UniProt Q86WV6, H232R)
Construct: host or cells: 293T-Dual hSTING-R232 cells (HEK 293T)
TEST_METHOD_NOTES: 293T R232 cell reporter assay (HEK 293T reporter assay)
Assay type: cell-based
STUDY_CONDITIONS: digitonin 10 μg/mL, 30 min exposure, 20 h incubation, alkaline phosphatase reporter, read-out: EC50 [μM] IRF reporter
TEST_READOUT: EC50

COMPOUND | MEASURED_RESULT
CO[C@H]1[C@H]2OP(=O)(O)OC[C@@]34C[C@@H]3[C@@H](n3cnc5c(N)ncnc53)[C@H](OP(=O)(O)OC[C@H]1O[C@H]2n1cnc2c(=O)[nH]c(N)nc21)[C@@H]4O | 0.25 to 100 µM
Nc1nc2c(ncn2[C@H]2[C@@H]3OP(=O)(O)OC[C@H]4O[C@@H](n5cnc6c(N)ncnc65)[C@H](F)[C@@H]4OP(=O)(O)OC[C@]4(C[C@H]24)[C@H]3O)c(=O)[nH]1 | 0.25 to 100 µM
Nc1nc2c(ncn2[C@@]23C[C@H]2[C@@H]2COP(=O)(O)O[C@H]4[C@@H](F)[C@H](n5cnc6c(N)ncnc65)O[C@@H]4COP(=O)(O)O[C@@H]3[C@@H]2O)c(=O)[nH]1 | 0.25 to 100 µM

Then there is this compound:
// sample CO[C@H]1[C@H]2OP(=O)(O)OC[C@H]3O[C@@H](n4cnc5c(N)nnnc54)[C@H](O)[C@@H]3OP(=O)(O)OC[C@H]1O[C@H]2n1cnc2c(=O)[nH]c(N)nc21 , its EC50 was > 100 µM

---

TESTED_SYSTEM: 293T-Dual hSTING-R232 cells (Homo sapiens, UniProt Q86WV6, H232R)
Construct: host or cells: 293T-Dual hSTING-R232 cells (HEK 293T)
TEST_METHOD_NOTES: 293T R232 cell reporter assay (HEK 293T reporter assay)
Assay type: cell-based
STUDY_CONDITIONS: digitonin 10 μg/mL, 30 min exposure, 20 h incubation, luciferase reporter, read-out: EC50 [μM] IRN-β reporter
TEST_READOUT: EC50

Field: example entries. Status: answers known.
COMPOUND | EC50
Nc1nc2c(ncn2[C@@H]2O[C@@H]3COP(=O)(O)O[C@@H]4[C@@H](COP(=O)(O)O[C@H]3[C@H]2O)[C@@H]2C[C@@]2(n2cnc3c(N)ncnc32)[C@@H]4O)c(=O)[nH]1 | < 0.25 µM
Nc1nc2c(ncn2[C@@]23C[C@H]2[C@@H]2COP(=O)(O)O[C@H]4[C@@H](F)[C@H](n5cnc6c(N)ncnc65)O[C@@H]4COP(=O)(O)O[C@@H]3[C@@H]2O)c(=O)[nH]1 | > 100 µM
Nc1nc2c(ncn2[C@H]2[C@H](O)[C@@H]3OP(=O)(O)OC[C@H]4O[C@@H](n5cnc6c(N)ncnc65)[C@H](F)[C@@H]4OP(=O)(O)OC[C@@]34C[C@H]24)c(=O)[nH]1 | < 0.25 µM
Nc1ncnc2c1ncn2C1OC2COP(=O)(S)OC3C(O)C(n4cnc5c(N)ncnc54)C4CC43COP(=O)(S)OC1C2O (centres unmarked) [Compound 1-14c] | 0.25 to 100 µM

For Nc1nc2c(ncn2[C@@H]2O[C@@H]3CO[P@](=O)([S][Na])O[C@H]4[C@@H](O)[C@H](n5cnc6c(N)ncnc65)[C@H]5C[C@]54COP(=O)([O-])O[C@@H]2[C@@H]3F)c(=O)[nH]1.[Na+] [Compound 1-22b] on 293T-Dual hSTING-R232 cells (Homo sapiens, UniProt Q86WV6, H232R), measured EC50 was < 0.25 µM
